- procedure-details: yeast display, Sf9 membrane polyspecificity reagent, FACS + sequencing; frameworks hold sequencing errors
property-measured: polyreactivity (PSR sort gate)

Examples with their reported polyreactivity (PSR sort gate) follow.
[[record]]
item_sequence = "QVQLVESGGGLVQAGGSLRLSCAASGLTFNTSAMGWSRQAPGKEREWVAAITSSGSITYYADSVKGRFTISRDNAKNTVYLQMNSLKPEDTAVYYCAAAVGYYAFGTYPFDDWPYDYWGQGTQVTVSS"
property_measured = "polyreactivity (PSR sort gate)"
result = "high polyreactivity"

[[record]]
item_sequence = "QVQLVESGGGLVQAGGSLRLSCAASGTYTNAMGWYRQAPGKERELVAAISSTVGRTYYADSVKGRFTISRDNAKNPVYLQMNSLKPEDTAVYYCATTHGRTYYYWGQGTLVTVSS"
property_measured = "polyreactivity (PSR sort gate)"
result = "high polyreactivity"

[[record]]
item_sequence = "QVQLVESGGGLVQAGGSLRLSCAASGSTFYNAMGWYRQAPGKERELVAAITRSGGSTYYADSVKGRFTISRDNAKNTVYLQMNSLKPEDTAVYYCAAKSIIRPSAPRRDDMDYWGQGTQVTVSS"
property_measured = "polyreactivity (PSR sort gate)"
result = "low polyreactivity"

[[record]]
item_sequence = "QVQLVESGGGIVQAGGSLRLSSAASGRTFYVYTMGWYRQAPGKERELVAAITSGGSTNYADSVKGRFKISRDNAKNTVYLQMNSLKPEDTAVYYCAARFSTVFKRYYYWGQGTQLTVSS"
property_measured = "polyreactivity (PSR sort gate)"
result = "high polyreactivity"

[[record]]
item_sequence = "QVQLVESGGGLVQAGGSLRLSCAASGLILVHYAMGWYRQAPGKERELVAAISAGGGSTYYADSVKGRFTISRDNAKNTVYLQMTSLKPEDTAVYYCNARVVNYFRPRTGAREYDYWGQGTQVTVSS"
property_measured = "polyreactivity (PSR sort gate)"
result = "high polyreactivity"


## Task Requested field: polyreactivity (PSR sort gate). Item: QVQLVESGGGLVQAGGSLRLSCAASGSIFVPNAMGWYRQAPGKERELVAAITSGGSTYYADSVKGRFTISRDNAKNTVYLQMNSLKPEDTAVYYCAAEYWLGLYTYDYWGQGTQVTVSS
## Result high polyreactivity

## Task Requested field: polyreactivity (PSR sort gate). Item: QVQLVESGGGLVQAGGSLRLSCAASGFTFTRYGMGWYRQSPGKERELVAGISSGGSTNYADSVKGRFTISRDNSKNTVYLQMNSLKPEDTAVYYCAAGFYSHGIELGYWGQGTQVTVSS
## Result high polyreactivity

## Task So what does the record say about polyreactivity (PSR sort gate) for QVQLVESCGGLVHAGGSLRLSCAATGFTIAENVKGWYRQSPGKERELVAAIDYSDGITYYADSVKGRFTISRDNAKNTVYLQMNSLKPEDTAVYYCATQYLIQTKDYSWGQGTQVTVSS ?
## Result high polyreactivity

## Task So what's the measured polyreactivity (PSR sort gate) for this one? QVQLVESGGGLVQAGGSLRLSCAASGRTFAVYAMGWYRQATGKERELVAAISSGGSTYYADSVKGRFTISRDNAKNTVYLQMNSLKPEDTAVYYCTARWGYRRGYCGQGTQVTVSS
## Result high polyreactivity

## Task Find the recorded polyreactivity (PSR sort gate) belonging to QVQRVDSGGGLRQAGGSLRLTCSASGSIFGLYAMGWYRQATGKERELVASISKSGGSTYYADCVKGRFTISRDNAKNTVYLQMNRLKPEDTAVYYCAARQYPRAGFDYWGQGTQVPVSS and report it.
## Result high polyreactivity

## Task Given the entry QVQLVESGGGLVQAGGSLRLSCAASGFTFRGNAMGWYRQAPGKERELVAAISYIGGTTYYADSVKGRFTISRDNAKNTVYLQMNSLKPEDTAVYYCAADLYRSILKPDYDYWGQGTQVTVSS , report its measured polyreactivity (PSR sort gate).
## Result high polyreactivity

## Task Query: polyreactivity (PSR sort gate); subject: QVQLVESGGGLVQAGGSLRLSCAASGLIFRPYAMGGYRQAPGKARELVAAITSGGSTDYADSLKGRFTISRDNAKNTVYLQMNSLNPEDTAVFYCNADFYPHDGYPWQGDYDYWGQGTQVTVSS
## Result low polyreactivity

## Task Sample QVQLVESGGGLVQAGGSLPLSCAASGSNLRRYDMGLYRQAPGKERELVAAISSSGGSTYYADSVKGRFTISRDNAKNTVYLQMNSLKPEDTAVYYCAADIYDDDRSEYTEYDYWGQGTHVTVSS — what was its polyreactivity (PSR sort gate)?
## Result low polyreactivity

## Task Please give the measured polyreactivity (PSR sort gate) for this sequence: QVQLVESGGGLVQAGGSLRLSCAASGRIFRSNSMGWYRQAPGKERELVATITRSGGSTYYADSGKGRFSISRDNAKNTVYVQKNSLKPEDTAVYYCNAVFGSAYRAQRIMGYWGQGTQVTVSS
## Result low polyreactivity

## Task Find the recorded polyreactivity (PSR sort gate) belonging to QVQLVESGGGLVQAGGSLRLSCAASGSIFEPYTMGWYRQAPGKERELVAAITGSGCSKFYADSVKGRFTISRDNAKNTVYLQMNSLKPEDTGVYYCNAYAYPYTDVDYWGQGTQVTVSS and report it.
## Result low polyreactivity

## Task Would you kindly share the measured polyreactivity (PSR sort gate) for QVQLVDSGGGLVQAGGSLRLIFAASGITQPYYAMGWYRQAPGKERELVAGISSRGGSTYYADSVKGRFTISRDNAKNTVYLQMNSLIPEDTAVYYCAAKVASTRLGPAYGYWGQGTQVTLSS ?
## Result high polyreactivity

## Task Quick one: polyreactivity (PSR sort gate) of QVQLVESGGGLVQAGGSLRLSCAASGFTFNRYDMGWYRQAPGKERELVAAITGGSGSTYYADSVKGRFTISRDNAKNTVYLQMHSLKPEDTAVYDCAARRYRLSTPEFNYWGQGTQVTVSS ?
## Result high polyreactivity

## Task State the recorded polyreactivity (PSR sort gate) for this entry: QVQLVESGGGLVQAGGSLRLSCAASGRIFNLYAMGWYRPAPGKERELVAAISWSGGSTYYADSVKGRFTITRDNAKNTVYLQMNSLKPEDTAVYYCKVVSTYKHTYDFDYWGQGTQVTLSS
## Result high polyreactivity

## Task For QVQLVESGGGLVQAGGSLRLSCAASGSIFAYYAMGGYRQAPGKEREFVAAISKRGGRTYYADSVKGRFTISRDNAKNTVYLQMNSLKPEDTAVYYCAAPWAYPRSGGDYWGQGTQVTVSS , what is its reported polyreactivity (PSR sort gate)?
## Result high polyreactivity

## Task Recorded polyreactivity (PSR sort gate) for QVQLVESGGGLVQAGGSLRLSCAASGSIFEGNGRGWYREAPGKDRELVAAITFRSGSTYYADSVKGRFTISRDNAKNTVYLQMNSLKPEDTAVYYCAADEYYQVSAYDYWGQGTQVTVSS , please?
## Result low polyreactivity

## Task Need polyreactivity (PSR sort gate) of QVQLVESGGGLVQAGGSLRLSCAASGSTFQLYSMGWYRQAPGKERELVAAIRWRGGSTYYADSVKGRFTISRDNAKNTVYLQMNSLKPEDTAFYYCAAVGYNYNVEYYYWGQGTQVTVSS , thanks.
## Result high polyreactivity
